test: growth suppression of yeast trafficking mutant, preliminary HTS, modulators of trafficking downstream of Golgi apparatus project, 1536-format plate, OD 615 nm (AID 637); conditions: yeast transport mutant growth, absorbance 615 nm, 18 h; stronger effect = higher value
Active and inactive are the calls of the source. Rule as the data show it: active = inhibition above about 30%; inactive = the rest.
Readout kind: inhibition

The examples below pair each entry with its known result.
> print(dat)
                         molecular.string  experimental.result
1   Cc1ccc(NC2=NC3(CCCCC3)N=C(N)N2)c(C)c1    -5.87% (inactive)
2          FC(F)(F)c1nnc2sc(-c3cccs3)nn12      4.6% (inactive)
3      c1ccc(-n2ncc3c(N4CCCCC4)ncnc32)cc1    -4.17% (inactive)
4    Cc1cc(Nc2ccc(C(=O)O)cc2)n2nc(C)nc2n1     4.92% (inactive)
5  Cc1cc(C(=O)Nc2ccccc2C#N)n(-c2ccccc2)n1        0% (inactive)

response.value for O=c1c2ccccc2cnn1-c1nc2ccccc2s1 (field: inhibition) = -3.33% (inactive)

response.value for CC(C)Cc1cc(C(=O)Nc2c(F)cc(F)cc2Br)no1 (field: inhibition) = -4.33% (inactive)

response.value for Cc1ccc(S(=O)(=O)N2CCC(C(=O)N3CCC[C@H]3C(=O)NCc3ccccc3)CC2)cc1 (field: inhibition) = -0.66% (inactive)

response.value for Nn1c(SCC(=O)Nc2ccc3c(c2)OCO3)nnc1C1CC1 (field: inhibition) = 8.25% (inactive)

response.value for CN1CC(=O)N(CC(=O)NCCc2ccc(F)cc2)c2ccccc2C1=O (field: inhibition) = 1.75% (inactive)

response.value for Cc1cc(C(=O)NCCN2CCN(c3cccc(Cl)c3)CC2)n(-c2ccccc2)n1 (field: inhibition) = -1.48% (inactive)
